- System: NCI-H23 lung
- measurement-description: NCI-60 one-dose screen, 48 h (100 = growth as untreated, 0 = no growth, -100 = all killed)
- particulars: 10 µM unless noted
About 83,000 compounds went through this panel and 20% of them were active in at least one assay; those are over-represented in the sample as a whole.
Threshold check on growth: at or above 80% gives yes (1), strictly below gives no (0).

>>> print(df.to_string())
                                    molecule  assigned_category
 0    CCc1ccccc1NC(=O)c1sc2nc3c(cc2c1N)CCCC3             no (0)
 1  Cn1cc(-c2csc(-c3cn(C(=O)OC(C)(C)C)c4ccc(Br)cc34)n2)c2cccnc21            yes (1)
 2  Nc1c(C(=O)Nc2c(Cl)cccc2Cl)sc2nc3c(cc12)CCCC3            yes (1)
 3  Clc1ccccc1-c1nc(Nc2nc3ccccc3s2)nc(C(Cl)(Cl)Cl)n1             no (0)
 4  Cn1cc(-c2csc(-c3cn(CCN)c4ccc(F)cc34)n2)c2cccnc21             no (0)
 5  Cc1cc(C)c(NC(=O)c2sc3nc4c(cc3c2N)CCCC4)c(C)c1             no (0)
 6  COc1ccc2c(c1)c(-c1nc(-c3c[nH]c4ncccc34)cs1)cn2CCCN1CCCCC1             no (0)
 7  CC(C)(C)CC(C)(C)c1ccc(OCCOCC[N+](C)(C)CC(=O)[O-])cc1            yes (1)
 8  C=C1C(=O)O[C@H]2[C@H]1CC/C(COC(=O)NCCc1c[nH]c3ccccc13)=C\CC[C@@]1(C)O[C@@H]21             no (0)
 9  Cn1cc(-c2nc(-c3cn(C)c4ncccc34)cs2)c2cc(F)ccc21             no (0)
10  Cc1ccc(Sc2sc(-c3ccccc3)nc2[P+](c2ccccc2)(c2ccccc2)c2ccccc2)cc1             no (0)
11  Cc1csc(-c2ccc3c(c2)COC3(CCCN(C)C)c2ccc(F)cc2)c1 (centres undefined)            yes (1)
12  Nc1nc2c(c(=O)[nH]1)C(c1ccc3c(c1)OCO3)C=C(C(=O)O)N2 (centres undefined)            yes (1)
13  N#CC1=C(N)Oc2ccc3ccccc3c2C1c1ccccc1Cl (centres undefined)             no (0)

----------
- System: HCT-15 colon
- measurement-description: NCI-60 one-dose screen, 48 h
- particulars: 10 µM unless noted
This is part of a sample that, as a whole, favours compounds with a hit. Of some 83,000 tested, about 20% had one in any assay. Calls of active or inactive are those of the source. How the source made its calls: active means growth percent below 10; inactive means the rest.
Labels: active, inactive

>>> print(df.to_string())
                                    compound  assigned_category
 0  O=C1c2cccc3cccc(c23)C(=O)N1CC#Cc1ccc2c3c(cccc13)C(=O)N(CCO)C2=O           inactive
 1  Cc1cc(N(CCCNc2ccnc3cc(Cl)ccc23)Cc2ccco2)nc(Cl)n1           inactive
 2  Cn1cc(-c2csc(-c3cn(C(=O)OC(C)(C)C)c4ccccc34)n2)c2cccnc21           inactive
 3  COc1ccc(NC(=O)c2ccc3c(c2)nc(-c2cc4ccccc4[nH]c2=O)n3-c2cc(C(C)(C)C)[nH]n2)cc1           inactive
 4  C/C(=N\NC(=O)C(C)SC(C)C(=O)N/N=C(\C)c1cccnc1)c1cccnc1 (stereo not drawn)           inactive
 5  COc1cc(-c2c(C#N)c(-c3cccs3)nc3c2c(-c2ccccc2)nn3-c2ccccc2)ccc1O           inactive
 6  C[C@@H](Oc1ccc(C(=O)NS(=O)(=O)C(C)(C)C)cc1C(F)(F)F)c1ccc(Oc2ccccc2)cn1           inactive
 7  CC1(C)CC[C@]2(CO)CC[C@]3(C)C(=CC[C@@H]4[C@@]5(C)CC[C@H](NCO)C(C)(C)[C@@H]5CC[C@]43C)[C@@H]2C1             active
 8  COc1ccc(C2=NN(c3nc(-c4ccc(OC)cc4)c(C#N)c(=O)n3C)C(=O)CC2)cc1           inactive
 9  N#Cc1cnc2cc(OC[C@@H](O)CO)c(NC(=O)C3CCCC3)cc2c1Nc1ccc(OCc2cccc(F)c2)c(Cl)c1           inactive
10  O=C(/C=C/c1cccc2ccccc12)Nc1ncc(Cc2ccccc2)s1           inactive
11  Cc1ccc(N(CC(=O)Nc2ccc(S(=O)(=O)NC3CCN(C)CC3)cc2)S(=O)(=O)c2ccc(Cl)cc2)cc1           inactive
12  Oc1cc(/C=C/c2nc(N3CCOCC3)c3cc(Cl)c(Cl)cc3n2)cc(O)c1O           inactive
13                       O=Cc1nc2ccccc2[nH]1           inactive
14  C[C@@H](C(=O)O)c1ccc2c3cc(Cl)ccc3n(Cc3cc(=O)oc4ccc(Cl)cc34)c2c1           inactive
15  CC[C@]12C=CCN3CC[C@@]4(c5cc([C@H]6CCC(=O)N6)c(OC)cc5N(C)[C@H]4[C@@](O)(C(=O)OC)[C@@H]1OC(C)=O)[C@@H]32           inactive
16  COc1cc(-c2cc3ncccc3c3nc(OCCN(C)C)c4cccnc4c23)cc(OC)c1OC           inactive
17  COc1ccc(/C=C/C(=O)c2ccc([N+](=O)[O-])cc2)cc1           inactive
18  COc1ccc(/C=C(\C#N)c2cc3ccccc3n2S(C)(=O)=O)cc1           inactive
19                     Nc1ncnc2nc(Br)[nH]c12           inactive
20      CC1(n2nnnc2N2CCCN(c3ncccc3N)CC2)CCC1           inactive
21          Nc1nc(N)c2nc3c(nc2n1)CCCCCCCCCC3           inactive
22  N#CC1C(=N)Cc2ccccc2-c2ccccc21 (stereo not drawn)           inactive
23            O=C(/C=C/c1cccc(O)c1)c1ccccc1O           inactive
24           COC(=O)CNc1nc(N(C)O)nc(N(C)O)n1           inactive
25  CC(=O)O[C@@H]1CCN2C(=O)N(C)c3ccccc3[C@@H]2C1           inactive
26  Cc1ccc(N(CC(=O)Nc2ccc(S(=O)(=O)N3CCC(N4CCCC4)CC3)cc2)S(=O)(=O)c2ccc(Cl)cc2)cc1             active
27    COC(=O)c1cc(=O)nc(N/N=C/c2ccc(C)cc2)s1           inactive
28  Cc1nn(-c2ccc(Br)cc2)c2nc3[nH]c(=O)[nH]c(=O)c3nc12           inactive
29  O=C1Nc2ccccc2/C1=C/c1cn(CCCn2c3ccccc3c(=O)c3ccccc32)c2ccccc12           inactive
30  NCCn1cc(-c2nc(-c3c[nH]c4ncccc34)cs2)c2ccccc21           inactive
31                CCCNc1nc(N(C)O)nc(N(C)O)n1           inactive
32  Nc1c2c(nc3ccc(Br)cc13)CC(c1ccccc1)CC2=O (stereo not drawn)           inactive
